Potency (pM), IL-17-driven IL-6 production in HS27 cells reference
biological target: human IL-17A (human, UniProt Q16552 24-155); assay: cell-based or functional assay
Sequence (Q16552 24-155): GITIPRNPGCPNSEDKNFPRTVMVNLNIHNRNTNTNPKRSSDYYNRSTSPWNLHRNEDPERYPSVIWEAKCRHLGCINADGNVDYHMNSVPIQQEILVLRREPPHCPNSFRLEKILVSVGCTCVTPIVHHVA
MEASUREMENT_TYPE: Potency (pM), IL-17-driven IL-6 production in HS27 cells

- BINDER: "IL17-h10F7.4 (antibody, V domains shown, IgG; constant regions not specified) VH: QVQLQQSGAELVRPGTSVTLSCKASGYIFTDYEIHWVKQTPVHGLEWIGVNDPESGGTFYNQKFDGKAELTADKSSSTAYMELRSLTSEDSGVYYCTRYYRYESFYGMDYWGQGTSITVSS VL: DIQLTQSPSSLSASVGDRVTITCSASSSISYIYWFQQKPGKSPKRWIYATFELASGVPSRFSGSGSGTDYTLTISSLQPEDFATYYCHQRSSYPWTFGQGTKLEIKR"
  RESULT: "117 pM"
- BINDER: "IL17-h10F7.15 (antibody, V domains shown, IgG; constant regions not specified) VH: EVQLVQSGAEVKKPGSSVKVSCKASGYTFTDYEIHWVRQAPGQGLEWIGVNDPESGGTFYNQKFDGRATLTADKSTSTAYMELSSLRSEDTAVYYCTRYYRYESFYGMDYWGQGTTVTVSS VL: EIVLTQSPSSLSASVGDRVTITCSASSSISYIYWFQQKPGKSPKRWIYATFELASGVPSRFSGSGSGTDYTLTISSLQPEDFATYYCHQRSSYPWTFGQGTKLEIKR"
  RESULT: "309 pM"
- BINDER: "IL17-h10F7.17 (antibody, V domains shown, IgG; constant regions not specified) VH: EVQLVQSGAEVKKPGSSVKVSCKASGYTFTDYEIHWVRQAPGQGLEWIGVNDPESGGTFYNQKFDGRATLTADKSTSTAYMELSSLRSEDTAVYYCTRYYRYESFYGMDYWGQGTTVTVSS VL: QIVLTQSPDFQSVTPKEKVTITCSASSSISYIYWFQQKPDQSPKRWIYATFELASGVPSRFSGSGSGTDYTLTINSLEAEDAATYYCHQRSSYPWTFGQGTKLEIKR"
  RESULT: "510 pM"
